binding signal values, listed per item
- experimental.system: SIX1-Q177R homeodomain (human, UniProt Q15475 108-198, Q177R)
- Sequence: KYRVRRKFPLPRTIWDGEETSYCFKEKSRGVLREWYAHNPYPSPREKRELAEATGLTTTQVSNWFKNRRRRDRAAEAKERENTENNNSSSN
- experimental.details: universal protein binding microarray; Universal all-10-mer PBM (8x60K, AMADID 030236), 300 nM GST-tagged protein, Alexa Fluor 488 anti-GST; buffer, salt, pH and temperature not stated (as in Berger); high values mean tight binding
- condition.description: protein: ivt; tags: N-terminal GST; dsDNA, one strand shown
In all, about 33,000 sequences were measured (“e-score”: median about -0.05, highest 2% from about 0.38 on). Many of the other results were omitted from the sample, so the highest values are more common in it than they were.
Express it in E-score; write the number only.

Completed entries (count: 4):
ACACCATG : 0.47
CACTTATG : 0.161
ACGACACT : 0.428
AGTGTACG : 0.407

Recorded binding signal (sequence GGTGTACA ): 0.482

Entry CCCTTAGG ; binding signal = 0.175

Note to self: binding signal recorded for ACCCGTAA was 0.264

* * *

- experimental.system: SIX1-Q177R homeodomain (human, UniProt Q15475 108-198, Q177R)
- Sequence: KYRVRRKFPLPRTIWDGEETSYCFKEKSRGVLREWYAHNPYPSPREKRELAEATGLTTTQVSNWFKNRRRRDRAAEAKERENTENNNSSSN
- experimental.details: universal protein binding microarray; Universal all-10-mer PBM (8x60K, AMADID 030236), 300 nM GST-tagged protein, Alexa Fluor 488 anti-GST; buffer, salt, pH and temperature not stated (as in Berger); high values mean tight binding
- condition.description: protein: ivt; tags: N-terminal GST; dsDNA, one strand shown
Whole data set: some 33,000 sequences, median “e-score” near -0.05, cut for the highest 2% near 0.38. Shown is part of a subset that was picked to be rich in the highest values.
Listed here: items and their measured binding signal.
Report as: number unit

ACCGTGTA : 0.438 E-score

So for AGCACCAG , the logged binding signal turned out to be 0.247 E-score

The reported value for GAGTGTTA in terms of binding signal is 0.407 E-score

* * *

- experimental.system: SIX1-Q177R homeodomain (human, UniProt Q15475 108-198, Q177R)
- Sequence: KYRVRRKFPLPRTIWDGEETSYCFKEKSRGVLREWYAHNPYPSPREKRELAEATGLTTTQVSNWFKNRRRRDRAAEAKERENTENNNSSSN
- experimental.details: universal protein binding microarray; Universal all-10-mer PBM (8x60K, AMADID 030236), 300 nM GST-tagged protein, Alexa Fluor 488 anti-GST; buffer, salt, pH and temperature not stated (as in Berger); high values mean tight binding
- condition.description: protein: ivt; tags: N-terminal GST; dsDNA, one strand shown
In all, about 33,000 sequences were measured (“e-score”: median about -0.05, highest 2% from about 0.38 on). The sample holds the highest values, similar sequences and a random draw of the others, so the mix is not that of the screen.
Decision: binding signal >= 0.3 E-score yields 1 (yes), all other cases yield 0 (no).

ACACTCTA : 1 (yes)
ACACTCAG : 1 (yes)
ACACTCAT : 1 (yes)
GACCCCGC : 0 (no)

Entry ATGGCCGA : is its binding signal no less than 0.3 E-score?
0 (no)

Please tell me: is the sequence CCCTTTGC at or over 0.3 E-score in terms of binding signal?
0 (no)

Given ACACTCAA , state whether its binding signal is at least 0.3 E-score.
1 (yes)

Has ACACTTAC a recorded binding signal greater than or equal to 0.3 E-score?
1 (yes)

Is the recorded value of binding signal equal to or greater than 0.3 E-score for this sequence? ATGATCCC
0 (no)

Reported binding signal reaches at least 0.3 E-score for CCCCGGAC ?
0 (no)

* * *

// values below are reported binding signal
- experimental.system: SIX1-Q177R homeodomain (human, UniProt Q15475 108-198, Q177R)
- Sequence: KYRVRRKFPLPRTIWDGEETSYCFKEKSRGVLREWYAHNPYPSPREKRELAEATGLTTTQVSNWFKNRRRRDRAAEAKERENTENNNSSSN
- experimental.details: universal protein binding microarray; Universal all-10-mer PBM (8x60K, AMADID 030236), 300 nM GST-tagged protein, Alexa Fluor 488 anti-GST; buffer, salt, pH and temperature not stated (as in Berger); high values mean tight binding
- condition.description: protein: ivt; tags: N-terminal GST; dsDNA, one strand shown
In all, about 33,000 sequences were measured (“e-score”: median about -0.05, highest 2% from about 0.38 on). The entries come from a sample that favours the highest values as a whole.
Reply with just the number (in E-score).

These solved cases illustrate the format of a correct answer.
ACCTGTAT : 0.17
GGGTACTA : 0.224
CTCGGATA : 0.188

Entry under test: ACACGCGA . Its binding signal was 0.369

response.value for CCTCAACA (field: binding signal) = 0.204

The value of binding signal measured for the sequence ACCCGCGT turned out to be 0.229

* * *

- experimental.system: SIX1-Q177R homeodomain (human, UniProt Q15475 108-198, Q177R)
- Sequence: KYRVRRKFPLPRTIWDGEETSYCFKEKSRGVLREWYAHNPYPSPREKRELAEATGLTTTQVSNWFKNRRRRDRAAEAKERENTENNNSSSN
- experimental.details: universal protein binding microarray; Universal all-10-mer PBM (8x60K, AMADID 030236), 300 nM GST-tagged protein, Alexa Fluor 488 anti-GST; buffer, salt, pH and temperature not stated (as in Berger); high values mean tight binding
- condition.description: protein: ivt; tags: N-terminal GST; dsDNA, one strand shown
Whole data set: some 33,000 sequences, median “e-score” near -0.05, cut for the highest 2% near 0.38. What follows is part of a selection rich in the highest values, with near analogues and random picks from the rest.
Each record's class is read off its binding signal using these ranges: I = under 0.2 E-score, II = from 0.2 E-score up to 0.3 E-score, III = 0.3 E-score and over

Reference set, count: 2
ACACTCGT : III
ACCCACAC : III

Bin this entry: ATAAGCAC
I

Determine which band this sequence sits in: GTGCACCA
II

Band for the recorded binding signal of CTACAACA ?
I

Into which bin does this sequence go? GCGGGTTA
II

* * *

- experimental.system: SIX1-Q177R homeodomain (human, UniProt Q15475 108-198, Q177R)
- Sequence: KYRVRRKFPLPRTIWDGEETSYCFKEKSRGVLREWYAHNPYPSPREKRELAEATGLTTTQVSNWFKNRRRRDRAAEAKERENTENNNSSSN
- experimental.details: universal protein binding microarray; Universal all-10-mer PBM (8x60K, AMADID 030236), 300 nM GST-tagged protein, Alexa Fluor 488 anti-GST; buffer, salt, pH and temperature not stated (as in Berger); high values mean tight binding
- condition.description: protein: ivt; tags: N-terminal GST; dsDNA, one strand shown
Whole data set: some 33,000 sequences, median “e-score” near -0.05, cut for the highest 2% near 0.38. The list comes from a sample in which the highest values are over-represented; it also holds close analogues and randomly drawn sequences.
Classify as follows. Reported binding signal greater than or equal to 0.2 E-score: rule met. Reported binding signal below: rule not met.

Solved cases below.
CCGACCGG : rule not met
CACACCTG : rule met
TCTCAACA : rule met
AATCCACA : rule not met
AGGACACG : rule met

Quick check: does ATGAGACA have binding signal greater than or equal to 0.2 E-score?
rule not met

Does binding signal meet or surpass 0.2 E-score for GACTACAC ?
rule met

# bool: binding signal of CACCTAAG >= 0.2 E-score
rule met

Assess whether reported binding signal for TGGACACA sits at 0.2 E-score or higher.
rule met

binding signal >= 0.2 E-score for CACACCTA ?
rule met

Is the recorded value of binding signal equal to or greater than 0.2 E-score for this sequence? CCGAACCG
rule not met

* * *

- experimental.system: SIX1-Q177R homeodomain (human, UniProt Q15475 108-198, Q177R)
- Sequence: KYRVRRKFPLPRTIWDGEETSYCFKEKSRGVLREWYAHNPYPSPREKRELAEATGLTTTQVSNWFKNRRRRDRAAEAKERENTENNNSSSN
- experimental.details: universal protein binding microarray; Universal all-10-mer PBM (8x60K, AMADID 030236), 300 nM GST-tagged protein, Alexa Fluor 488 anti-GST; buffer, salt, pH and temperature not stated (as in Berger); high values mean tight binding
- condition.description: protein: ivt; tags: N-terminal GST; dsDNA, one strand shown
In all, about 33,000 sequences were measured (“e-score”: median about -0.05, highest 2% from about 0.38 on). Shown is part of a subset that was picked to be rich in the highest values.
Cut-off 0.2 E-score on binding signal, inclusive. At or above means 1.0; below means 0.0.

CACACGCC : 1.0
CGCATTGC : 0.0
ACATGGGT : 1.0
CACCGGTC : 1.0
CACCGGTG : 1.0
CACGCGCA : 1.0

Could you tell me if the measured binding signal of TATCGACA reaches 0.2 E-score or more?
1.0

Check if binding signal >= 0.2 E-score (inclusive). Item: CGCCCAGC
0.0

# check: binding signal of AACCGGTG is greater than or equal to 0.2 E-score
1.0

Reported binding signal at or above 0.2 E-score? TATCGTCA
1.0

Is binding signal at least 0.2 E-score? Consider CGGAGTTA
1.0
